Each recorded value in this set is attributed to the supplement of paper PMC6555819.

Test system: PPARg:RXRa DBDmut IVT, anti-RXR (DBD mutation: RXRa K156A/R161A, NR concentration 270 nM, RXRa partner concentration 90 nM)
Assay: PBM binding z-score (relative to random genomic background probes); higher = stronger binding; sequences stand for … in GC…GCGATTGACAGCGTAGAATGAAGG
attribute_measured: PBM binding z-score
Please give only the number in your answer, with no unit.

Problem: // Input: GGTTGTAGATCAAGGTTAAGAAAGACTAAGCTAA . Output its PBM binding z-score only.
Result: 0.74

Problem: Specify PBM binding z-score for GTACCAAGGTGAATACGTCGTTGATGAGTAGGCG and stop.
Result: 1.17

Problem: State its PBM binding z-score: TGAGTGAGGTTAAAGATCAGGGAACGTGGCGTCG
Result: 0.116

Problem: Could you please provide reported PBM binding z-score for CCTCGGAGGACAACAGGAGGTCCGAGCTGCCAGA ? Thanks!
Result: -0.427

Problem: Write down PBM binding z-score measured for item TCTGCTAGGTCAGTTGGTCATCTAACGAGCTGCC
Result: 2.75

Problem: Specify PBM binding z-score for AGAATGACGTTATTAAGATCAGGGAATTGCGGTC and stop.
Result: -0.6

Problem: Item TCGAGTAGGTTAGTCGGGGCAGTCAGCCAACATA : provide PBM binding z-score
Result: 2.19

Problem: Hello, please tell me recorded PBM binding z-score for this one: ACTAGCAGGCCAAGGGTCACTCAAGATTAGTCCG
Result: 0.983

Problem: Read off the recorded PBM binding z-score for TCTAGTTGGTCACAGGTCACACACTCGAAATGCG
Result: 3.01

Problem: Complete the entry with PBM binding z-score for TCAGACAGGTGAAGGTAACTTAGGTACGCAGTCG
Result: 2.71

Problem: State its PBM binding z-score: CAAACTAGGTCATCGGAAGGTCAAAGTCCGCATG
Result: 7.98

Problem: Given the sequence CAAACTAGGTTAAGGTCAAAGTCGGTTTGTGCCA , write its reported PBM binding z-score.
Result: 7.61

Problem: Recall and state the measured PBM binding z-score for GCTGCTAGGTCAACTGATAGTCAGCTAAAGCTCG .
Result: 4.86

Problem: Determine from records and report PBM binding z-score for TCTTGTAGACCAAAGGTTAAGAAAGCCGAAGCCT
Result: 2.06

Problem: Identify the reported PBM binding z-score for the following entry. ATCTCTAGGTAAAGATAGTTCAGTGGATGCAAAT
Result: 1.85

Problem: Item TCGAGTAGGTTAGTCGCGGCATTCAGCCAACATA : provide PBM binding z-score
Result: 1.72

Problem: Identify measured PBM binding z-score associated with CATACAGTGTCAGCTAGGCCAGAGTAGGGACGGC
Result: -0.0696

Problem: State, in one line, measured PBM binding z-score of TCTTGTAGATCAGCAGGTTAAGTAAGCTGGCCAA
Result: 1.65

Problem: For the sequence TCTGGCAGGCCAGAGGGTCACTCAAGAGGTACGG , give its reported PBM binding z-score.
Result: 0.0912

Problem: Answer with the recorded PBM binding z-score of ACTTACGGGTCACCGAGGTTATAGCACGCGTATA only.
Result: 4.12

Problem: Give the reported value of PBM binding z-score for this record: CGTCCAAGGTCAGAGGAGGTCAGTGAAGACAGAT
Result: 1.93

Problem: Given the sequence CCTCGGAGGACAGAAGGTGAGAGCTGTCCGCTTT , write its reported PBM binding z-score.
Result: -0.327

Problem: Tell me its PBM binding z-score given CAAACTAGGTCAAGAGGTCACAGTCCGCTTCCCG as the entry.
Result: 8.51

Problem: Output measured PBM binding z-score for this item: CCTGCTAGGTCAATGGGCAGCTAAAGCAGCTCGC
Result: 3.7

Problem: Return PBM binding z-score for the following sequence: ACTTACGGGTCAACCAGGTTATAGCACGCGTATA
Result: 3.23

Problem: Could you please provide reported PBM binding z-score for CCAGACAGGTGAAAGATAACTCAGTCTGGTACGC ? Thanks!
Result: 1.22

Problem: Tell us which PBM binding z-score value is on record for ATCGAAAGGTCGTGAGGCGAGTATACAGAAAGGC
Result: 0.466

Problem: Give the reported value of PBM binding z-score for this record: TAGCCTAGGTCATGCGGTCCAGTATAGTGTCGGC
Result: 1.68

Problem: Name the recorded PBM binding z-score of the sequence listed here: TCTAGCAGGCCAGAGGGTCAGTCAAGAGGTACGG
Result: 0.768

Problem: Give PBM binding z-score for the following sequence: ACTAGCAGACCAAGTTTGGGTCACTCAAACAAAG
Result: -0.311

Problem: State, in one line, measured PBM binding z-score of CGTCCAAGGTCAAGGTCGGTGAAAGAGACTCGAA
Result: 3.16

Problem: Quote PBM binding z-score reported for CCTAGTTGGTCAAGGTCACAAACGCTATAGGTAC please.
Result: 2.22

Problem: State its PBM binding z-score for this sequence: TCTATTAATTGATTAGGGCAACCGAAACAGCGGA
Result: 1.84

Problem: Query PBM binding z-score for TCTCGGAGGACACGAAAGGTCAGATCTCGACATC
Result: 2.03

Problem: Tell me PBM binding z-score reported for CAAACTAAGTCAAGAGGTCAAAGTCCGCTTCCCG
Result: 2.44

Problem: For the sequence CAAACTAGGTCAAGAGGTCAAGGTCCGCTTCCCG , report PBM binding z-score.
Result: 8.52

Problem: Report measured PBM binding z-score; entry is TAGCCTATGTCATGGGCCAGTATACCACGCGAAC
Result: -0.759

Problem: Give PBM binding z-score for TCATATAGGTAATACAGGTGAGAGTCGGCATCTA
Result: 3.93

Problem: For the sequence ACTATTAGTTGACCTAGGGCAACCGATACGACGC , report PBM binding z-score.
Result: 1.31
